Please respond with reported Abs 630 (25 nM) for every item in the list.
STUDY TARGET: T1, human IL-10 receptor (hIL-10R alpha and beta chains) on HEK-Blue IL-10 reporter cells (human, UniProt Q13651 22-578; Q08334 20-325)
T1 sequence 1: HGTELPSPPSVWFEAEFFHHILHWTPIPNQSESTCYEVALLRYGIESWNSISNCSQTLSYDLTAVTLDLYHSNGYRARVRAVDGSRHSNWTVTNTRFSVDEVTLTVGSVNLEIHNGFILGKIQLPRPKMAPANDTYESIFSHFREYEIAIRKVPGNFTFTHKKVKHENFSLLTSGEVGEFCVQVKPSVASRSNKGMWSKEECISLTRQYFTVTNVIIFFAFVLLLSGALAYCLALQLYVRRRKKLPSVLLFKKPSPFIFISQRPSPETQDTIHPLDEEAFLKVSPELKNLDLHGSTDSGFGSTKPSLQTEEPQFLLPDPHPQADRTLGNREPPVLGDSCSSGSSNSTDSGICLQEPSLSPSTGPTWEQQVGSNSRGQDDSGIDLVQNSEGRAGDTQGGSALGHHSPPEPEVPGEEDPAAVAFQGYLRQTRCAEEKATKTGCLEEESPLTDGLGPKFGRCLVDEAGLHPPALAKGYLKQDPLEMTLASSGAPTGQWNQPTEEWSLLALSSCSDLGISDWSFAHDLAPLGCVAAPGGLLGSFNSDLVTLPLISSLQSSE
T1 sequence 2: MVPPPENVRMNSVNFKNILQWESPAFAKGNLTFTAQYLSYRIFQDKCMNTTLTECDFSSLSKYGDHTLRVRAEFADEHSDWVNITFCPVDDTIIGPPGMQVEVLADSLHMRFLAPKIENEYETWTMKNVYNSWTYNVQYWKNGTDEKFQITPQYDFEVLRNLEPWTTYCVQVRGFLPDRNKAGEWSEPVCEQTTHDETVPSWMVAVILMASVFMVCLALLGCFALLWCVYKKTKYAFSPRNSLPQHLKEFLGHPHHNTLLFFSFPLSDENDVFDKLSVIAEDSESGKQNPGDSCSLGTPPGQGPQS
TEST NAME: cell-based or functional assay
One number for each entry, in Abs 630.

[[record]]
binder = "IL10R binding molecule of SEQ ID NO: 302 (bispecific antibody) QVQLQESGGGSVQAGGSLRLSCAASGYSNCSYDMTWYRQAPGKEREFVSAIHSDGSTRYADSVKGRFFISQDNAKNTVYLQMNSLKPEDTAMYYCKTDPLHCRAHGGSWYSVRANYWGQGTQVTVSSGGGSQVQLQESGGGSVEAGGSLRLSCAASGYTHSSYCMGWFRQAPGKEREGVAAIDVDGSTTYADSVKGRFTISKDNAKNTLYLQMNSLKPEDTGMYYCAAEFADCSSNYFLPPGAVRYWGQGTQVTVSSASHHHHHH"
readout_number = 1.98


Abs 630 (25 nM) for IL10R binding molecule of SEQ ID NO: 326 (bispecific antibody) QVQLQESGGGSVQAGGSLRLSCTVSRYTASVNYMGWFRQAPGKEREGVATIFTGAGTTYYANSVKGRFTISRDNAKNTAYLQMNSLKPEDTAIYYCAVDFRGGLLYRPAYEYTYRGQGTQVTVSSGGGSQVQLQESGGGSVQAGGSLRLSCAASRYLYSIDYMAWFRQSPGKEREPVAVIYTASGATFYPDSVKGRFTISQDNAKMTVYLQMNSLKSEDTAMYYCAAVRKTDSYLFDAQSFTYWGQGTQVTVSSASHHHHHH is 0.47
